molecular target: ΔF508-CFTR (Homo sapiens, UniProt P13569, DEL508-508); construct: host or cells: CFBE41o-, doxycycline-inducible; assay: CFTR cell surface levels using HRP-tagged ΔF508-CFTR expressing CFBE cells, in the presence of a co-corrector; format: cell-based; conditions: HRP-tagged ΔF508-CFTR CFBE cells, in the presence of 3 μM co-corrector
Sequence (P13569 with tags, fused parts or gaps DEL508-508): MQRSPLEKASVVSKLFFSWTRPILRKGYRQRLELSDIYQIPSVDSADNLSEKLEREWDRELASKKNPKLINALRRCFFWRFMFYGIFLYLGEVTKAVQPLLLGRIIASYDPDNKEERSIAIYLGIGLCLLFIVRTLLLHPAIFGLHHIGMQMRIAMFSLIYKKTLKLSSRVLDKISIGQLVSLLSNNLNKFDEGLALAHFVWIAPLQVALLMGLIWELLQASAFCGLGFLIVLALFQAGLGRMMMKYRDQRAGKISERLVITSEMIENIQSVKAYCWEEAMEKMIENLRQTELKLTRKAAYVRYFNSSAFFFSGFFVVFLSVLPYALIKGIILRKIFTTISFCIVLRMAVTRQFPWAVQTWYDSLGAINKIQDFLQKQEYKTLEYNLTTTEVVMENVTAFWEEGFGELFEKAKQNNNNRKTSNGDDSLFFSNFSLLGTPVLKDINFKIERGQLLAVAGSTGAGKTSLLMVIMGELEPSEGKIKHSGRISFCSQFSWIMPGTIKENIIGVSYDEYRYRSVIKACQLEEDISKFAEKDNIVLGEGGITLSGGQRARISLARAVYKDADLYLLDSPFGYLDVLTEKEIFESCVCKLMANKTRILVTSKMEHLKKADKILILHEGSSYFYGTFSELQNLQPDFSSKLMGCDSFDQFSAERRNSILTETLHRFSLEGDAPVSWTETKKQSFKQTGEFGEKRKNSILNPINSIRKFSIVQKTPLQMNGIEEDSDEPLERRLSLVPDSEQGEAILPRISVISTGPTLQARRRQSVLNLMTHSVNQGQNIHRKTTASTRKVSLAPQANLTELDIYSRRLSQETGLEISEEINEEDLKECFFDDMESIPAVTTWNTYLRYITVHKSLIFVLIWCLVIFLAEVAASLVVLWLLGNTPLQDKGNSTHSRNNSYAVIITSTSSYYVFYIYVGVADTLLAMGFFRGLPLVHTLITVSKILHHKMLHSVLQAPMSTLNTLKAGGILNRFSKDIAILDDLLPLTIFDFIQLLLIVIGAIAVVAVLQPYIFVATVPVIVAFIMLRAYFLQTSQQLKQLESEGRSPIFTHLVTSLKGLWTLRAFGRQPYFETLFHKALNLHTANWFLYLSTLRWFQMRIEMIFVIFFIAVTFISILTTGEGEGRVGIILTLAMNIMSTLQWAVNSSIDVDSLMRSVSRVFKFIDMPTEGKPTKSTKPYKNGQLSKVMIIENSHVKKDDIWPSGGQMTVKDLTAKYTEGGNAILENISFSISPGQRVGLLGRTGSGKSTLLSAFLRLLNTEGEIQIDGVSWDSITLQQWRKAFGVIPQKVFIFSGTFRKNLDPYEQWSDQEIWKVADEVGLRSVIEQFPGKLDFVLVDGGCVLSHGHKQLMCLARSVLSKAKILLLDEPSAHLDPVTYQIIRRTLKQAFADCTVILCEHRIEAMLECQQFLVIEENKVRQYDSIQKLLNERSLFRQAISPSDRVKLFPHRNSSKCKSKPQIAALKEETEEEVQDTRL
QUANTITY: % Activation (%)
Hi! Could you send only the number? It should be in %, unit omitted.

Some compounds with recorded % Activation:
COMPOUND	VALUE
COCCN(C)S(=O)(=O)NC(=O)c1cc(N2CCC(N3CCOCC3)CC2)c2c(C3CCC3)nn(-c3ccc(F)cc3)c2n1 [Compound 471]	446.07
O=C(NS(=O)(=O)N1CCC(N2CCCC2)CC1)c1cc(OCC2CCOCC2)c2c(C3CCC3)nn(-c3ccccc3)c2n1 [Compound 351]	232.5

# next compound below
Note to self: % Activation recorded for CC(C)N1CCN(c2ccc(-c3cc(C(=O)NS(=O)(=O)N(C)C)nc4c3c(C3CCC3)nn4C3CCCCC3)cc2)CC1 [Compound 547] was 372.95
